- tested.system: FLT3 (Homo sapiens (Human), UniProt P36888)
- Sequence (P36888 27-993): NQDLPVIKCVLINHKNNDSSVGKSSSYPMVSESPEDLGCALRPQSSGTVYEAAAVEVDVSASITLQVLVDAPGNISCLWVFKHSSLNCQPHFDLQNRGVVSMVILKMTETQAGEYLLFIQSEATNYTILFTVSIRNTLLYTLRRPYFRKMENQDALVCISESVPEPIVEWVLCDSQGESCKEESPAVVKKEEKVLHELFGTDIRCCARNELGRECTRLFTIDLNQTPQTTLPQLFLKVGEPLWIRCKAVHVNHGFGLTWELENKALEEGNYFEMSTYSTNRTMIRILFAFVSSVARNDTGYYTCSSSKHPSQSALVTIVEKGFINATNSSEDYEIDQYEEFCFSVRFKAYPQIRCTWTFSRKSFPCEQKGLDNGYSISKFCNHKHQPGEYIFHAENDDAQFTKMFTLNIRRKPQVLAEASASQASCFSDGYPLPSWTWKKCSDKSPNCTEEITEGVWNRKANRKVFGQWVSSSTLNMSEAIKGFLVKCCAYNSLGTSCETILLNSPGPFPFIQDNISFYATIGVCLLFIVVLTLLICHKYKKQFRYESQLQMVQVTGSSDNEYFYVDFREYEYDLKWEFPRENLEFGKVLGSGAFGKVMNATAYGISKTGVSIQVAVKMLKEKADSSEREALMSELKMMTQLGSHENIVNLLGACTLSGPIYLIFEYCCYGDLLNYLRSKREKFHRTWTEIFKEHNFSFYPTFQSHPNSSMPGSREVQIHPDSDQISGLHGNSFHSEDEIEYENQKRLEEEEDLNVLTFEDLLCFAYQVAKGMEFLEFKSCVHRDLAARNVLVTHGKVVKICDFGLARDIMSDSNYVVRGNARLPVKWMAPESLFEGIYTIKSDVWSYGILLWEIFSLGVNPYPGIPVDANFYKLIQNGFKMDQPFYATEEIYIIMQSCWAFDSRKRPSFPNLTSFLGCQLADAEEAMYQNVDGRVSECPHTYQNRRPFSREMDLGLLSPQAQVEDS
- experiment.notes: Inhibition of FLT3 kinase activity (HTRF KinEASE-TK)
- Assay type: biochemical
pIC50: −log10 of the molar value.
test.readout: pIC50

Look up pIC50 with FLT3 (Homo sapiens (Human), UniProt P36888) for this compound: `Cc1cc(F)c(C(=O)Nc2ccc(OC(C)C)cn2)cc1NC(=O)c1cnc(N)s1`
< 6.00

---

- tested.system: PDGFRβ (Homo sapiens (Human))
- Sequence (P09619 33-1106): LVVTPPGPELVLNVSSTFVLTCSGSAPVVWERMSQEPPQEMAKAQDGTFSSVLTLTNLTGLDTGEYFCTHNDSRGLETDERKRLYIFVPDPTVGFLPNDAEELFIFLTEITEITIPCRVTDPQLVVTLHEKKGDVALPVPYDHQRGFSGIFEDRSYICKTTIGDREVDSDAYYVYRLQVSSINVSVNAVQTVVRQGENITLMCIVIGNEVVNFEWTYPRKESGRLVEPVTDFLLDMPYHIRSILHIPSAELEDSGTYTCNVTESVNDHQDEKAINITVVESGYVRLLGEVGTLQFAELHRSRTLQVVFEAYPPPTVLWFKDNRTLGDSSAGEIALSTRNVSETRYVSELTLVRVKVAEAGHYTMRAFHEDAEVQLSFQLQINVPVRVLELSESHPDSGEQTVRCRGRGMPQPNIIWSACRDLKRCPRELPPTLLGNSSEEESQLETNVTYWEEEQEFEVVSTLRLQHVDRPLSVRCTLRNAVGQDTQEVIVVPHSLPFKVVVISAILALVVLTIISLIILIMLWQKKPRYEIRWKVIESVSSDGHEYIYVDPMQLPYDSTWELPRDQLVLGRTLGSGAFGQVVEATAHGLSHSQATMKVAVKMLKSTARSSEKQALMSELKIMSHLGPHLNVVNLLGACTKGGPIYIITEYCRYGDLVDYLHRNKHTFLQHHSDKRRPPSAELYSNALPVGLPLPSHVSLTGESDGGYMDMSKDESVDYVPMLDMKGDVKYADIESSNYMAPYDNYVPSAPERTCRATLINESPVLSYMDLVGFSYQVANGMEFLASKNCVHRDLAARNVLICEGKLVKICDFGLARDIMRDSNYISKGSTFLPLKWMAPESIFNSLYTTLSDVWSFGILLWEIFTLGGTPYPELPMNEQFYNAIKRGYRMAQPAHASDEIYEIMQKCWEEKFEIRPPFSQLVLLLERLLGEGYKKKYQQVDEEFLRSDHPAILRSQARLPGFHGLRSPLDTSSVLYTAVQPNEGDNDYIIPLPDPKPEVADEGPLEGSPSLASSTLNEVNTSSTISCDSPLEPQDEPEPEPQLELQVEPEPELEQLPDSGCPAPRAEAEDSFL
- experiment.notes: Inhibition of PDGFRβ kinase activity (HTRF KinEASE-TK)
- condition.details: biochemical, HTRF KinEASE-TK
Reported values of IC50 for individual entries

CNc1ncc(C(=O)Nc2cc(C(=O)Nc3ccc(OC4CC4)cn3)c(F)cc2C)s1 [Example 241] | > 1 µM

If you can, please state the reported IC50 value of Cc1cc(F)c(C(=O)Nc2ccc(OC3CC3)cn2)cc1NC(=O)c1cnc(NC(=O)C(C)(C)O)s1 [Example 109] .
> 1 µM

Return reported IC50; argument: Cc1cc(F)c(C(=O)Nc2ccc(OC3CC3)cn2)cc1NC(=O)c1cnc(NC(=O)OC2CCC2)s1 [Example 106]
0.1 to 1 µM

Which value of IC50 has been reported for COCc1ccc(NC(=O)c2cc(NC(=O)c3cnc(C)s3)c(Cl)cc2F)nc1 [Example 47] in the records?
> 1 µM

Please give the measured IC50 for this molecule: Cc1cc(F)c(NC(=O)c2cnc(N)s2)cc1C(=O)Nc1ccc(OC2CC2)cn1 [Example 223]
> 1 µM
